Assay: n-Octanol/water and n-octanol/Tris buffer shake-flask partitioning
Assay type: physicochemical
Conditions: n-octanol/Tris HCl buffer, pH 7.4; n-octanol/5 mM Tris HCl with 0.1 M KCl, pH 7.40, 25.0 °C; read-out: log D o/t
recordedEndpoint: logD

Exercise: Dear colleague, I am looking for the recorded logD of the following compound: "S=C(N/N=C/c1c[nH]cn1)Nc1ccc(Cl)cc1"
Solution: 1.58

---

Experiment: Spectrophotometric (UV-vis) pH titrations for proton dissociation constants
Assay type: physicochemical
Settings: pure water (0% DMSO), predicted value, 0% DMSO (pure water), predicted value; I = 0.10 M (KCl); 25.0 °C; read-out: pKa1
Procedure: Spectrophotometric titrations were applied to study the equilibrium processes (proton dissociation and complex dissociation/formation) in DMSO/H2O mixtures due to the limited aqueous solubility of the compounds. […] The proton dissociation constants were calculated by using the computer program PSEQUAD.
recordedEndpoint: pKa

Exercise: I am curious: what pKa value has been reported for "S=C(N/N=C/c1c[nH]cn1)Nc1ccc(Cl)cc1" ?
Solution: 4.58

---

Experiment: n-Octanol/water and n-octanol/Tris buffer shake-flask partitioning
Type: physicochemical
Conditions: n-octanol/pure (unbuffered) water, 1:1; read-out: log D o/w
recordedEndpoint: logD
Number only, please.

Exercise: # get_value(readout='logD', item= S=C(N/N=C/c1c[nH]cn1)Nc1ccc(Cl)cc1 [HL] )
Solution: 0.9

---

Test: Spectrophotometric (UV-vis) pH titrations for proton dissociation constants
Type: physicochemical
Settings: pure water (0% DMSO), predicted value, 0% DMSO (pure water), predicted value; I = 0.10 M (KCl); 25.0 °C; read-out: pKa2
recordedEndpoint: pKa
Number, no unit, nothing else.

Exercise: Quick check: pKa of "S=C(N/N=C/c1c[nH]cn1)Nc1ccc(Cl)cc1" ?
Solution: 10.9
